pIC50 values, listed per item
Target: Ribosyldihydronicotinamide dehydrogenase [quinone] (Homo sapiens)
Sequence (P16083 whole entry): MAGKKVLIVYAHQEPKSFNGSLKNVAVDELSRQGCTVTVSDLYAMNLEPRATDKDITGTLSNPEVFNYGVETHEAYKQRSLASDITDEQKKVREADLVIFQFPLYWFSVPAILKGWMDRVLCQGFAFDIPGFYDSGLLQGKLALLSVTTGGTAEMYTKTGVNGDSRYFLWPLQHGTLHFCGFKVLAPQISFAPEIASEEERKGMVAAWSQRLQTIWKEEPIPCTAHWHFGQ
Test: Inhibition of human recombinant NQO2
Please report pIC50 as the negative decimal logarithm of the molar concentration, giving only the number.

Examples with their reported pIC50 follow.
Dear colleague, I am looking for the recorded pIC50 of the following molecule: `Cc1c2ccnc(-c3ccccc3)c2cc2c1[nH]c1ccccc12`
5.68

Another molecule to check: COc1cc(NC(C)CCCN)c2ncccc2c1 (stereo unspecified) [PRIMAQUINE]
5.12

Another molecule to check: `c1ccc2c(-c3ccsc3)c3c(ccc4ccccc43)cc2c1`
5.29

Another molecule to check: `CCN(CC)Cc1cc(Nc2c3ccccc3nc3c4ccccc4n(C)c23)ccc1O`
5.46

Another molecule to check: `COc1cc2cc(-c3cc(OC)c(OC)c(OC)c3)c3c(c2cc1OC)CNC3=O`
5.70

Continuing:
Dear colleague, I am looking for the recorded pIC50 of the following molecule: `CCN1/C(=C/c2ccc3ccccc3[n+]2CC)C=Cc2ccccc21`
5.57

Another molecule to check: `COc1ccc(/C(C#N)=C\c2cc(OC)c(OC)c(OC)c2)cc1`
4.70

Another molecule to check: `Cc1cc2c(ccc3c2ccc[n+]3C)[nH]1`
5.68
